assay: Pharmacokinetic (toxicokinetic) study, plasma; format: in vivo, Sprague Dawley rats; conditions: female, Sprague Dawley, rat, plasma, iv, 40 mg/kg, Day 3, 40 mg/kg IV, Female, plasma; read-out: Vd
attribute measured: Vd (L/kg)
Give the quantity in L/kg, number only.

Data request: Report Vd for "CC(=O)N[C@H]1[C@H](Oc2ccc([N+](=O)[O-])cc2)O[C@H](CO)[C@@H](O)[C@@H]1O"
Data returned: 3.72

###

assay: Pharmacokinetic (toxicokinetic) study, plasma; type: in vivo, Sprague Dawley rats; details: Sprague Dawley, rat, plasma, other: IV or IP, 10 mg/kg, single IV or IP 10 mg/kg dose, extrapolated from Cmax at 40 mg/kg; read-out: Cmax in plasma expected for 10 mg/kg
attribute measured: Cmax

Data request: Report Cmax for CC(=O)N[C@H]1[C@H](Oc2ccc([N+](=O)[O-])cc2)O[C@H](CO)[C@@H](O)[C@@H]1O [AVR-48]
Data returned: ~91 µM

###

assay: Pharmacokinetic (toxicokinetic) study, plasma; assay type: in vivo, Sprague Dawley rats; conditions: male, Sprague Dawley, rat, plasma, iv, 40 mg/kg, Day 1, 40 mg/kg IV, Male, plasma; read-out: Cl (converted)
attribute measured: clearance

Data request: Report clearance for "CC(=O)N[C@H]1[C@H](Oc2ccc([N+](=O)[O-])cc2)O[C@H](CO)[C@@H](O)[C@@H]1O"
Data returned: 0.806 L/h/kg

###

experiment: Pharmacokinetic (toxicokinetic) study, plasma; format: in vivo, Sprague Dawley rats; conditions: female, Sprague Dawley, rat, plasma, iv, 40 mg/kg, Day 3, 40 mg/kg IV, Female, plasma
attribute measured: AUC(0-t) (ng·h/mL)
Give the quantity in ng·h/mL, number only.

Data request: Report AUC(0-t) for CC(=O)N[C@H]1[C@H](Oc2ccc([N+](=O)[O-])cc2)O[C@H](CO)[C@@H](O)[C@@H]1O [AVR-48]
Data returned: 36600

###

Assay: Pharmacokinetic (toxicokinetic) study, plasma
Type: in vivo, Sprague Dawley rats
Details: female, Sprague Dawley, rat, plasma, iv, 40 mg/kg, Day 3, 40 mg/kg IV, Female, plasma; read-out: Cl (converted)
Protocol: For the PK study of AVR-48 in rats, a formulation consisting of 10% DMSO, 20% tetraglycol, 20% PEG 400, and 50% sterile water was developed. Each preparation was made on the same day of dose administration. […] Briefly, the appropriate volume of DMSO (10% of the final volume) was measured into a container followed by gradual addition of PEG 400 (20% of the final volume) and sterile water (50% of the final volume) to make up the volume and mixed thoroughly till completely dissolved. […]
attribute measured: clearance (mL/min/kg)
Give the quantity in mL/min/kg, number only.

Data request: Report clearance for "CC(=O)N[C@H]1[C@H](Oc2ccc([N+](=O)[O-])cc2)O[C@H](CO)[C@@H](O)[C@@H]1O"
Data returned: 18.3

###

test: Pharmacokinetic (toxicokinetic) study, plasma; format: in vivo, Sprague Dawley rats; settings: male, Sprague Dawley, rat, plasma, iv, 40 mg/kg, Day 1, 40 mg/kg IV, Male, plasma; read-out: Vd
attribute measured: Vd
Show the value, then the unit it is measured in.

Data request: Report Vd for CC(=O)N[C@H]1[C@H](Oc2ccc([N+](=O)[O-])cc2)O[C@H](CO)[C@@H](O)[C@@H]1O [AVR-48]
Data returned: 1.91 L/kg

###

assay: Pharmacokinetic (toxicokinetic) study, plasma; type: in vivo, Sprague Dawley rats; details: male, Sprague Dawley, rat, plasma, iv, 80 mg/kg, Day 1, 80 mg/kg IV, Male, plasma; read-out: Cl (converted)
attribute measured: clearance (mL/min/kg)
Give the quantity in mL/min/kg, number only.

Data request: Report clearance for "CC(=O)N[C@H]1[C@H](Oc2ccc([N+](=O)[O-])cc2)O[C@H](CO)[C@@H](O)[C@@H]1O"
Data returned: 11.3

###

test: Pharmacokinetic (toxicokinetic) study, plasma; type: in vivo, Sprague Dawley rats; conditions: male, Sprague Dawley, rat, plasma, iv, 40 mg/kg, Day 3, 40 mg/kg IV, Male, plasma; read-out: T1/2 (converted)
attribute measured: half-life (h)
Give the quantity in h, number only.

Data request: Report half-life for "CC(=O)N[C@H]1[C@H](Oc2ccc([N+](=O)[O-])cc2)O[C@H](CO)[C@@H](O)[C@@H]1O"
Data returned: 2.16

###

experiment: Pharmacokinetic (toxicokinetic) study, plasma; format: in vivo, Sprague Dawley rats; details: Sprague Dawley, rat, plasma, iv, 40 mg/kg, plasma, 40 mg/kg dose IV; read-out: Cmax
attribute measured: Cmax (µM)
Give the quantity in µM, number only.

Data request: Report Cmax for "CC(=O)N[C@H]1[C@H](Oc2ccc([N+](=O)[O-])cc2)O[C@H](CO)[C@@H](O)[C@@H]1O"
Data returned: 364

###

assay: Pharmacokinetic (toxicokinetic) study, plasma; format: in vivo, Sprague Dawley rats; conditions: Sprague Dawley, rat; Day 3, 40 mg/kg IV, Male, plasma
attribute measured: Tmax

Data request: Report Tmax for CC(=O)N[C@H]1[C@H](Oc2ccc([N+](=O)[O-])cc2)O[C@H](CO)[C@@H](O)[C@@H]1O [AVR-48]
Data returned: 5 min

###

assay: Pharmacokinetic (toxicokinetic) study, plasma; format: in vivo, Sprague Dawley rats; details: male, Sprague Dawley, rat, plasma, iv, 80 mg/kg, Day 3, 80 mg/kg IV, Male, plasma; read-out: Vd
attribute measured: Vd (L/kg)
Give the quantity in L/kg, number only.

Data request: Report Vd for "CC(=O)N[C@H]1[C@H](Oc2ccc([N+](=O)[O-])cc2)O[C@H](CO)[C@@H](O)[C@@H]1O"
Data returned: 1.8

###

test: Pharmacokinetic (toxicokinetic) study, plasma; type: in vivo, Sprague Dawley rats; conditions: female, Sprague Dawley, rat, plasma, iv, 80 mg/kg, Day 3, 80 mg/kg IV, Female, plasma; read-out: T1/2 (converted)
attribute measured: half-life (h)
Give the quantity in h, number only.

Data request: Report half-life for CC(=O)N[C@H]1[C@H](Oc2ccc([N+](=O)[O-])cc2)O[C@H](CO)[C@@H](O)[C@@H]1O [AVR-48]
Data returned: 2.05

###

Experiment: Pharmacokinetic (toxicokinetic) study, plasma
Type: in vivo, Sprague Dawley rats
Settings: female, Sprague Dawley, rat, plasma, iv, 40 mg/kg, Day 1, 40 mg/kg IV, Female, plasma; read-out: Vd
Procedure: For the PK study of AVR-48 in rats, a formulation consisting of 10% DMSO, 20% tetraglycol, 20% PEG 400, and 50% sterile water was developed. Each preparation was made on the same day of dose administration. […] Briefly, the appropriate volume of DMSO (10% of the final volume) was measured into a container followed by gradual addition of PEG 400 (20% of the final volume) and sterile water (50% of the final volume) to make up the volume and mixed thoroughly till completely dissolved. […]
attribute measured: Vd (L/kg)
Give the quantity in L/kg, number only.

Data request: Report Vd for "CC(=O)N[C@H]1[C@H](Oc2ccc([N+](=O)[O-])cc2)O[C@H](CO)[C@@H](O)[C@@H]1O"
Data returned: 1.51

###

assay: Pharmacokinetic (toxicokinetic) study, plasma; format: in vivo, Sprague Dawley rats; conditions: male, Sprague Dawley, rat, plasma, iv, 80 mg/kg, Day 1, 80 mg/kg IV, Male, plasma
attribute measured: AUC(0-t) (µg·h/mL)
Give the quantity in µg·h/mL, number only.

Data request: Report AUC(0-t) for "CC(=O)N[C@H]1[C@H](Oc2ccc([N+](=O)[O-])cc2)O[C@H](CO)[C@@H](O)[C@@H]1O"
Data returned: 118

###

experiment: Pharmacokinetic (toxicokinetic) study, plasma; format: in vivo, Sprague Dawley rats; settings: Sprague Dawley, rat; Day 1, 40 mg/kg IV, Female, plasma
attribute measured: Tmax (min)
Give the quantity in min, number only.

Data request: Report Tmax for "CC(=O)N[C@H]1[C@H](Oc2ccc([N+](=O)[O-])cc2)O[C@H](CO)[C@@H](O)[C@@H]1O"
Data returned: 5

###

experiment: Pharmacokinetic (toxicokinetic) study, plasma; assay type: in vivo, Sprague Dawley rats; conditions: female, Sprague Dawley, rat, plasma, iv, 80 mg/kg, Day 3, 80 mg/kg IV, Female, plasma
attribute measured: AUC(0-t)
Show the value, then the unit it is measured in.

Data request: Report AUC(0-t) for CC(=O)N[C@H]1[C@H](Oc2ccc([N+](=O)[O-])cc2)O[C@H](CO)[C@@H](O)[C@@H]1O [AVR-48]
Data returned: 95800 ng·h/mL

###

assay: Pharmacokinetic (toxicokinetic) study, plasma; type: in vivo, Sprague Dawley rats; conditions: both sexes, Sprague Dawley, rat, plasma, intravenous, day 1 and day 3 of dosing; read-out: clearance (CL)
attribute measured: clearance

Data request: Report clearance for "CC(=O)N[C@H]1[C@H](Oc2ccc([N+](=O)[O-])cc2)O[C@H](CO)[C@@H](O)[C@@H]1O"
Data returned: 12.4 to 18.3 mL/min/kg

Hey, just so you know, these numbers are from paper PMC7961996.
